Biological target: JAK3 (Homo sapiens, UniProt P52333)
Sequence (P52333 whole entry): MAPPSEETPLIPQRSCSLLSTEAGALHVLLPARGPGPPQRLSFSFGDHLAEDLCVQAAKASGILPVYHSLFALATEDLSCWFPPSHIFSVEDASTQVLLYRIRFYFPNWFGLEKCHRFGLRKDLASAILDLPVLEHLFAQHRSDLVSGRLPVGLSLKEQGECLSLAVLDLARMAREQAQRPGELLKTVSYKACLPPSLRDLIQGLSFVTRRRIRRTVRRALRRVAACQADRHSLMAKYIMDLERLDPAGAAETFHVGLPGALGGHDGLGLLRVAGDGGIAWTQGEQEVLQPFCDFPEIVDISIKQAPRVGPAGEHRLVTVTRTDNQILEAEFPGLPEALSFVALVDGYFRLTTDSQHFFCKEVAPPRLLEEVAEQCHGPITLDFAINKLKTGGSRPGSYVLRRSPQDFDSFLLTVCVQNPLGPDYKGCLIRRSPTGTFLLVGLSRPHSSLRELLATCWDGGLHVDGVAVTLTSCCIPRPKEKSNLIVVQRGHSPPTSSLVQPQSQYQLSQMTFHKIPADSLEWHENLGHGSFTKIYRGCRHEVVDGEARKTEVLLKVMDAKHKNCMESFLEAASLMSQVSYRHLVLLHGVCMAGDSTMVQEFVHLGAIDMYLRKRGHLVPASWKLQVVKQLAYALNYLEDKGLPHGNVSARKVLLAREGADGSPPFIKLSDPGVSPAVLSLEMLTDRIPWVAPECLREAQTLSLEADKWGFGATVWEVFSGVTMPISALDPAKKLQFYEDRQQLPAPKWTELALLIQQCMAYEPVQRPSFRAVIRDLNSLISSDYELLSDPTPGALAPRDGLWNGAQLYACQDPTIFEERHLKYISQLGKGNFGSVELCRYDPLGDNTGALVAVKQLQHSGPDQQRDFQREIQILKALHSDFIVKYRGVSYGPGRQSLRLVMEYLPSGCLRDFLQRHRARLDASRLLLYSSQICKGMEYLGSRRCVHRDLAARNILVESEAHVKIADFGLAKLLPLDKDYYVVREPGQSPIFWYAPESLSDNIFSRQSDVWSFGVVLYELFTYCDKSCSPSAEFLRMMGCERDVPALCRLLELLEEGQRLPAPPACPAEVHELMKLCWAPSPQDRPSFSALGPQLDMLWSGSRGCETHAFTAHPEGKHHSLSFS
Experiment: LanthaScreen TR-FRET binding test, JAK3
Conditions: recombinant JAK3 15 nM, kinase tracer 236 3 nM, 25° C., 1 hour; read-out: Inhibition (IC50) of JAK3 enzyme
Procedure: FLT3 (#PV3182), JAK2 (#PV4210) and JAK3 (#PV3855) recombinant enzymes were purchased from Life Technologies. FLT3-ITD (#0778-0000-1) and FLT3^D835Y (#14-610) proteins were purchased from ProQinase and Merck Millipore, respectively. All the tests were carried out in 384-well plates. […] The compounds are evaluated at 8 different concentrations prepared by making dilutions from a starting 10 mM stock solution in dimethylsulfoxide (DMSO) (Sigma, #D8418). […]
RECORDED_METRIC: pIC50
Scale for pIC50: -log10 of concentration given in mol/L; no unit attached.

Query: Please report the recorded pIC50 for c1cc(N2CC3CCC(C2)N3)c2cc1Nc1ncc3c(n1)-c1cc(ccc1CC3)OCCOCCO2 .
Result: 7.89

Query: Please report the recorded pIC50 for c1cc(OCCN2CCCC2)c2cc1Nc1ncc3c(n1)-c1cc(ccc1CC3)OCCOCCO2 .
Result: 7.15

Query: Please report the recorded pIC50 for CN1CC=C(c2ccc3cc2OCCOCCOc2ccc4c(c2)-c2nc(ncc2CC4)N3)CC1 .
Result: 6.96

Query: Please report the recorded pIC50 for OC1CCN(c2ccc3cc2OCCOCCOc2ccc4c(c2)-c2nc(ncc2CC4)N3)CC1 .
Result: 7.52

Query: Please report the recorded pIC50 for c1cc(N2CCNCC2)c2cc1Nc1ncc3c(n1)-c1cc(ccc1CC3)OCCOCCO2 .
Result: 7.52

Query: Please report the recorded pIC50 for CN1CCN(c2ccc3cc2OCCOCCOc2ccc4c(c2)-c2nc(ncc2CC4)N3)CC1(C)C .
Result: 7.75

Query: Please report the recorded pIC50 for CN1CCN(c2ccc3cc2OCCOCCOc2ccc4c(c2)-c2nc(ncc2CC4)N3)CC1 .
Result: 7.27

Query: Please report the recorded pIC50 for c1cc(N2C[C@H]3C[C@@H]2CN3)c2cc1Nc1ncc3c(n1)-c1cc(ccc1CC3)OCCOCCO2 .
Result: 7.46

Query: Please report the recorded pIC50 for c1cc(N2CCC(N3CCCCC3)CC2)c2cc1Nc1ncc3c(n1)-c1cc(ccc1CC3)OCCOCCO2 .
Result: 7.22

Query: Please report the recorded pIC50 for c1cc(N2CC3CNCC3C2)c2cc1Nc1ncc3c(n1)-c1cc(ccc1CC3)OCCOCCO2 (stereo not drawn) .
Result: 7.74

Query: Please report the recorded pIC50 for c1cc(N2CCC(N3CCOCC3)C2)c2cc1Nc1ncc3c(n1)-c1cc(ccc1CC3)OCCOCCO2 (stereo not drawn) .
Result: 6.92

Query: Please report the recorded pIC50 for CN(C)C1CCN(c2ccc3cc2OCCOCCOc2ccc4c(c2)-c2nc(ncc2CC4)N3)C1 (stereo not drawn) .
Result: 7.74
